System: PC-3
Experiment: Cytotoxicity against human PC-3 cells assessed as reduction in cell viability preincubated for 48 hrs and measured after 4 hrs by MTT assay
Type: functional, cell-based
readout: IC50 (µM)
Express your answer in µM, writing the number without its unit.

Provide measured IC50 value, entry: CN(C)CCCNc1nc(/C=C/c2ccc([N+](=O)[O-])cc2)nc2ccc(Cl)cc12 5.32

Provide measured IC50 value, entry: CN(C)CCNc1nc(/C=C/c2ccc([N+](=O)[O-])cc2)nc2ccccc12 51.1

Provide measured IC50 value, entry: COc1ccc(/C=C/c2nc(NCCN(C(C)C)C(C)C)c3ccccc3n2)cc1OC 20.3

Provide measured IC50 value, entry: CN(C)CCNc1nc(/C=C/c2ccc([N+](=O)[O-])cc2)nc2ccc(Cl)cc12 8.02

Provide measured IC50 value, entry: COc1cccc2c1C(=O)c1c(O)c3c(c(O)c1C2=O)C[C@@](O)(C(=O)CO)C[C@@H]3O[C@H]1C[C@H](N)[C@@H](O)[C@H](C)O1 [EPIRUBICIN] 2.31

Provide measured IC50 value, entry: CCN(CC)CCNc1nc(/C=C/c2ccc3c(c2)OCO3)nc2ccccc12 33.9

Provide measured IC50 value, entry: CCN(CC)CCNc1nc(/C=C/c2ccc(OC)c(OC)c2)nc2ccccc12 50.3

Provide measured IC50 value, entry: O=[N+]([O-])c1ccc(/C=C/c2nc(NCCN3CCCCC3)c3ccccc3n2)cc1 25.6

Provide measured IC50 value, entry: CCN(CC)CCCNc1nc(/C=C/c2ccc(OC)c(OC)c2)nc2ccc(Cl)cc12 6.25

Provide measured IC50 value, entry: C(=C\c1nc(NCCN2CCCCC2)c2ccccc2n1)/c1ccc2c(c1)OCO2 12.2
